What MFI at 60 nM mAb was measured for each of the following?
# TARGET_ENTITY: T1, Cyno CD33 full length, expressed on HEK293F cells (cynomolgus monkey)
# T1 construct: HEK293F cells transduced with lentivirus containing full length cyno CD33 (Genbank XP_005590138.1); also called cyCD33
# METHOD_SUMMARY: flow cytometry, HEK293F cells expressing cyno CD33
# Method: OMNIRat antibodies identified via immunization, v-region cloned and subsequently expressed and purified were characterized further for binding to CD33 expressing cells and binding to recombinant antigens. The purified antibodies were assessed for binding to stably transfected HEK293F cells expressing human CD33 or cyno CD33 (generation described above) along with the parental HEK293F as negative control. […] Antibody binding was assessed by the mean fluorescence intensity in the AF647 channel.
One number for each entry, in MFI.

Some solved entries appear below for comparison.
C33B63 (antibody, IgG1, V domains shown, huIgG1 F405L; also called C33F68; C33H51/C33L34) VH: QLQLQESGPGLVKPSETLSLTCTVSGGSISTGRYYWGWIRQPPGKGVIWIGNIYYSGNTYYNPSLKSRVTISVDTSKNQFSLKLNSVTAADTAVYYCARLGSLVVVPAAMSFDYWGQGTLVTVSS VL: SYELTQPPSVSVSPGQTASITCSGDKLGDKYACWYQLRPGQSPILVIYQDSNRPSGIPERFSGSNSGNTATLTISGTQAMDEADYYCQAWDSSTWVFGGGTKLTVL : 18300
C33B52 (antibody, IgG1, V domains shown, huIgG1 F405L; also called C33F57; C33H42/C33L8) VH: QLQLQESGPGLVNPSETLSHTCTVSGGSISSSSHYWGWIRQPPGKGLEWIGKIYYSGNTYYNPSLKSRVTISIDTSKNQFSLKMSSVTAADTAVYYCARLADVVVVPAARYFDSWGQGTLVTVSS VL: SYELTQPPSVSVSPGQTASIICSGDKLGNKYACWYQQKPGQSPVLVIYQDSKRPSGIPERFSGSNSGNTATLTISGTQAVDEADYYCQAWDSSTYVFGTGTKVTVL : 12600

The record that follows has no MFI at 60 nM mAb shown yet.
q: Given C33B55 (antibody, IgG1, V domains shown, huIgG1 F405L; also called C33F60; C33H45/C33L11) VH: QVQLVESGGGVVQPGRSLRLSCAASGFTFSSYGMHWVRQSPGKGLEWVAVISYDGSNKYCADSVKGRFTISRDNSKSTLYLQMNSLRAEDTAVYYCAKDFRSLDWLPPDSTSYDGMDVWGQGTTVTVSS VL: SYELTQPPSVSVSPGQTASITCSGHKLGDKYACWYQQKPGQSPVVVIYKDSKRPSGIPERFSGSNFGNTATLTISGTQAMDEADYYCQAWDSSTVVFGGGTKLTVL , state its recorded MFI at 60 nM mAb.
a: 16000
